assayTarget: CYP2C9 (Homo sapiens, UniProt P11712)
Sequence (P11712 whole entry): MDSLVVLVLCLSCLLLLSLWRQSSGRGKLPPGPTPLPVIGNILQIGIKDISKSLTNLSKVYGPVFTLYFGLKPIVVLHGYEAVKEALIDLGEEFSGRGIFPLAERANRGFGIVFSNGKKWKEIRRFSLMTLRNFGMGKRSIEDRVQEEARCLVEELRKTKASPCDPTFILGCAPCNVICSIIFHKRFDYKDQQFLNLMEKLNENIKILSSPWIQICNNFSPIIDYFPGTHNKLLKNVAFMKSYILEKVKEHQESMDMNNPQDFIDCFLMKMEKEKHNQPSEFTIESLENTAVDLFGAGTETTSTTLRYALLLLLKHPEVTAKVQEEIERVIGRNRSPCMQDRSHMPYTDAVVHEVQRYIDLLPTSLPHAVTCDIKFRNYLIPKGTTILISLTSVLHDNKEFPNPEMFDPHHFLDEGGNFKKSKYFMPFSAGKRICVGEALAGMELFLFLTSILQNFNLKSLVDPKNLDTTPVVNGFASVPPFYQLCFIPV
assayComment: CYP Inhibition
condition: human, human liver microsomes, probe 5 in 1 substrate cocktail
reportedEndpoint: inhibition at 10 min, 10 µM (%)
Your answer is read as %, so omit the unit and give the number.

Please give the measured inhibition at 10 min, 10 µM for this compound: C[C@@H]1[C@H](O)[C@@H](C)/C=C/C=C/C=C/C=C/C=C/C=C/C=C/[C@H](OC2O[C@H](C)[C@@H](O)[C@H](N)[C@@H]2O)C[C@@H]2O[C@](O)(C[C@@H](O)C[C@@H](O)[C@H](O)CC[C@@H](O)C[C@@H](O)CC(=O)O[C@H]1C)C[C@H](O)[C@H]2C(=O)O (stereo partly shown)
4.1
